Positive (%) listing for selected binders.
Target Entity: T1, BCMA on cells (293T cells transfected with BCMA; H929, MM.1S and U266 cell lines expressing BCMA) (human, UniProt Q02223 1-184)
T1 construct: H929, MM.1S and U266 carry the native protein; also called B-cell Maturation Antigen; TNFRSF17
T1 sequence: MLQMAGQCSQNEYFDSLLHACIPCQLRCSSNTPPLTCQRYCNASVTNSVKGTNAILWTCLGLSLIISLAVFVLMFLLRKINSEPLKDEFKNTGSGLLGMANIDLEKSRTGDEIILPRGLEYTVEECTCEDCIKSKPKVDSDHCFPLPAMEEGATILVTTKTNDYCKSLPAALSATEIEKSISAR
Protocol Description: flow cytometry, H929 cells; also: test concentration or dose not given here
The answer is to be given in %; state only the numeric part.

For reference, reported Positive (%) for SCT-Aa02(h/h) (antibody, V domains shown, Full IgG format, chimeric: human IgG1 heavy chain constant region, human kappa light chain constant region) VH: EVKLLQSGGGLVQPGGSLKLSCAASGIDFSRYWMSWVRRAPGKGLEWIGEINPDSSTINSAPSLEDKFIISRDNAKNTLYLQMSKVRSEDTALYYCASLYYDYERDYAMDYWGQGASVTVSS VL: DIVMTQSQKFMSTSVGDRVSVTCKASQNVGTNVAWYQQKPGQSPKALIYSASYRFSGVPDRFTGSGSGTDFTLTISNVQSEDLAEYFCQQYHSYPFTFGGGTKLEIK stands at 99.2

For reference, reported Positive (%) for SCT-Aa08(h/h) (antibody, V domains shown, Full IgG format, chimeric: human IgG1 heavy chain constant region, human kappa light chain constant region) VH: QVQLQQSDAELVKPGASVKISCKVSGYTFIDHTIHWMKQRPEQGLEWIGYIYPRIDSSKCNEKFKDKATLTADKSSNTAYIQLNSLTSEDSAVYFCARWDYEGFDYWGQGTTLTVSS VL: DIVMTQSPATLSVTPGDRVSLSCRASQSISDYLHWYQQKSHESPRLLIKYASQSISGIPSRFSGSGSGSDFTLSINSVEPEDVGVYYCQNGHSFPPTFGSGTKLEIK stands at 92.5

For reference, reported Positive (%) for SCT-Aa01(h/h) (antibody, V domains shown, Full IgG format, chimeric: human IgG1 heavy chain constant region, human kappa light chain constant region) VH: DVQLQESGPGLVKPSQSLSLTCSVTGYSITSGYYWNWIRQFPGNKLEWMGYIRYDGSNNYNPSLKNRISITRDTSKNQFFLKLNSVTTEDTATYYCAPYDYDYAMDFWGQGTSVTVSS VL: DIQMTQSPASLSASVGETVTITCRASGNIHNYLAWYQQKQGKSPQLLVYNAKTLAHGVPSRFSGSGSGTQYSLKITSLQPEDFGTYYCQHFWSTPFTFGSGTKLEIK stands at 55.2

For reference, reported Positive (%) for SCT-Aa03(h/h) (antibody, V domains shown, Full IgG format, chimeric: human IgG1 heavy chain constant region, human kappa light chain constant region) VH: EVKLLQSGGGLVQPGGSLKLSCAASGIDFSRYWMSWVRRAPGKGLEWIGEINPDSSTINYAPSLKDKFIISRDNAKNTLYLQMSKVRSEDTALYYCASFYYDYDHAMDYWGQGTSVTVSS VL: DIVMTQSQKFMSTSVGDRFSVTCKASQNVGTNVAWYQQKPGQSPKALIYSASYRFSGVPDRFTGSGSGTDFTLTISNVQSEDLAEYFCQQYNSYPFTFGSGTKLEIK stands at 98.2

For reference, reported Positive (%) for SCT-Aa19(h/h) (antibody, V domains shown, Full IgG format, chimeric: human IgG1 heavy chain constant region, human kappa light chain constant region) VH: QVQLQQSGPELVKPGASVRISCKASGCTFTDYYIHWVKQRPGQGLEWIGWIYPGNLNSKFNEKFRDKATLTADNSSSTAYMQLSSLTSEDSAVYFCARYNYEGYFDYWGQGTTLTVSS VL: DIVMTQSPATLSVTPGDRVSLSCRASQSIADSLHWYQQKSHESPRLLIKYASHSISGIPSRFRGSGSGSDFTLSINSVEPEDVGVYYCQNGHSFPLTFGAGTKLELK stands at 85.1

Provenance of the data: patent US20210332145A1
